fraction unbound at 3 h, 2 µM values for the molecules below.
protocol-description: in vitro
test-conditions: mouse, plasma, mouse plasma protein binding, fraction unbound (Fu)
readout-kind: fraction unbound at 3 h, 2 µM

molecule | reported
COc1cccc2[nH]c(C(=O)N[C@@H](Cc3cccc(F)c3)C(=O)N[C@@H](C[C@@H]3CCNC3=O)C(=O)COc3c(F)c(F)c(C(C)(C)O)c(F)c3F)cc12 [compound 10] | 0.0105
CCCCCCCC(=O)N[C@@H](Cc1cccc(F)c1)C(=O)N[C@@H](C[C@@H]1CCNC1=O)C(=O)COc1c(F)c(F)c(CO)c(F)c1F [compound 3] | 0.0041
COc1cccc2[nH]c(C(=O)N[C@@H](Cc3cccc(F)c3)C(=O)N[C@@H](C[C@@H]3CCNC3=O)C(=O)COc3c(F)c(F)cc(F)c3F)cc12 [compound 15, reference compound] | 0.0043

* * *

assayed-system: human cathepsin L (hCTSL) (Homo sapiens, UniProt P07711)
Construct: purchased R&D Systems
Sequence (P07711 114-333): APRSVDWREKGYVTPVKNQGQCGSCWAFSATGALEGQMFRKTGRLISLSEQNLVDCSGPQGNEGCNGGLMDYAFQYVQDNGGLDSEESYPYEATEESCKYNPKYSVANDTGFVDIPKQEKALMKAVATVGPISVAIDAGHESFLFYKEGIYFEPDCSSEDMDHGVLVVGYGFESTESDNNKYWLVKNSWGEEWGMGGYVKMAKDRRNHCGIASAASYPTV
protocol-description: hCTSL biochemical assay
As shown below, each of these compounds has a reported hCTSL biochemical assay pIC50 value.

compound | measurement-qualifier | hCTSL biochemical assay pIC50
CC(C)(O)c1c(F)c(F)c(OCC(=O)[C@H](C[C@@H]2CCNC2=O)NC(=O)[C@@H]2[C@@H]3[C@H](CN2C(=O)[C@@H](NC(=O)C(F)(F)F)C(C)(C)C)C3(C)C)c(F)c1F | < | 4.30
CCCCCCCC(=O)N[C@@H](Cc1cccc(F)c1)C(=O)N[C@@H](C[C@@H]1CCNC1=O)C(=O)COc1c(F)c(F)c(CO)c(F)c1F | = | 7.39
O=C(N[C@@H](Cc1c[nH]c2ccccc12)C(=O)N[C@@H](C[C@@H]1CCNC1=O)C(=O)COc1c(F)c(F)c(CO)c(F)c1F)c1cc2ccccc2[nH]1 | = | 7.64
COc1cccc2[nH]c(C(=O)N[C@@H](Cc3cccc(F)c3)C(=O)N[C@@H](C[C@@H]3CCNC3=O)C(=O)COc3c(F)c(F)c(C(C)(C)O)c(F)c3F)cc12 | = | 6.95
COc1cccc2[nH]c(C(=O)N[C@H](Cc3cccc(F)c3)C(=O)N[C@@H](C[C@@H]3CCNC3=O)C(=O)COc3c(F)c(F)c(CO)c(F)c3F)cc12 | = | 4.67
COc1cccc2[nH]c(C(=O)N[C@@H](Cc3cccc(F)c3)C(=O)N[C@@H](C[C@@H]3CCNC3=O)C(=O)COc3c(F)c(F)c(CO)c(F)c3F)cc12 | = | 7.54
COc1cccc2[nH]c(C(=O)N[C@@H](Cc3cccc(F)c3)C(=O)N[C@@H](C[C@@H]3CC(=O)NC3=O)C(=O)COc3c(F)c(F)c(CO)c(F)c3F)cc12 | = | 7.89
COc1cccc2[nH]c(C(=O)N[C@@H](Cc3cccc(F)c3)C(=O)N[C@@H](C[C@@H]3CCNC3=O)C(=O)COc3c(F)c(F)cc(F)c3F)cc12 [compound 15, reference compound] | = | 7.39
COc1cccc2[nH]c(C(=O)N[C@@H](Cc3cccc(F)c3)C(=O)N[C@@H](C[C@@H]3CC(=O)NC3=O)C(=O)COc3c(F)c(F)c(C(C)O)c(F)c3F)cc12 (some centres unmarked) | = | 7.65
COc1cccc2[nH]c(C(=O)N[C@@H](Cc3cccc(F)c3)C(=O)N[C@@H](C[C@@H]3CC(=O)NC3=O)C(=O)COc3c(F)c(F)c(C(C)(C)O)c(F)c3F)cc12 | = | 7.95
COc1cccc2[nH]c(C(=O)N[C@@H](Cc3cccc(F)c3)C(=O)N[C@@H](C[C@@H]3CCNC3=O)C(=O)COc3c(F)c(F)c(F)c(F)c3F)cc12 [compound 16, reference compound] | = | 6.98
